All values here come from patent US20080085315A1.

Experiment: Pharmacokinetics in fasted male Sprague Dawley rats, single dose
Type: in vivo
Conditions: rat, po, analyte EZE in plasma, single dose 100 mg/kg crystalline EZE or equivalent amount of amorphous EZE, read-out: AUC0-24 h
Experimental: The pharmacokinetics of crystalline EZE and the amorphous 1 EZE: 3 PVP+2% SLS spray dried powder were studied in male Sprague Dawley rats in the fasted state. Six rats were single-dosed with either 100 mg/kg crystalline EZE or an equivalent amount of the amorphous EZE of Example 2.
endpoint: AUC(0-t)

INSERT INTO measurements (input_smiles, readout_value) VALUES
  ('O=C1[C@H](CC[C@H](O)c2ccc(F)cc2)[C@@H](c2ccc(O)cc2)N1c1ccc(F)cc1', '64.2 ng·h/mL');
